Assay: Toxicity liver stage against HepG2, at 10uM
Format: cell-based
Set-up: test concentration 10 uM, cell line HepG2-A16-CD81EGFP
Details: human, HepG2-A16-CD81EGFP cells; read-out: INHIBITION
testReadout: cytotoxicity at 10 µM (%)

[[record]]
compound = "CS(=O)(=O)N[C@@H]1CN(C(=O)c2cc3ccccc3s2)C[C@H]1O"
testreadout = "cytotoxicity at 10 µM"
readoutunits = "%"
observed = -0.378

[[record]]
compound = "Cc1ncsc1-c1nnc(C2CCN(Cc3cccc(F)c3F)CC2)o1"
testreadout = "cytotoxicity at 10 µM"
readoutunits = "%"
observed = -15.8

[[record]]
compound = "CC(C)COC(C)C(=O)NCc1ccc(-n2cncn2)nc1 (stereo unspecified)"
testreadout = "cytotoxicity at 10 µM"
readoutunits = "%"
observed = -5.65

[[record]]
compound = "O=C(c1ccc[nH]1)N1CC2(CCN(c3ncccn3)C2)C1"
testreadout = "cytotoxicity at 10 µM"
readoutunits = "%"
observed = 2.26

[[record]]
compound = "CCOCCCC(=O)N1CCN(C(=O)Cc2cccc(OC)c2)CC1"
testreadout = "cytotoxicity at 10 µM"
readoutunits = "%"
observed = -1.86

[[record]]
compound = "COc1cccc(COCC(=O)N2CCN(S(C)(=O)=O)CC2)c1"
testreadout = "cytotoxicity at 10 µM"
readoutunits = "%"
observed = -10.7

[[record]]
compound = "Cc1c(C(=O)N2CCCN(S(C)(=O)=O)CC2)cnn1C"
testreadout = "cytotoxicity at 10 µM"
readoutunits = "%"
observed = 17.2

[[record]]
compound = "O=C(C1CCCC1)N1CCC(C(O)c2ccc(F)cc2)CC1 (stereo unspecified)"
testreadout = "cytotoxicity at 10 µM"
readoutunits = "%"
observed = 8.54

[[record]]
compound = "CC(=O)NC(C(=O)N(C)Cc1nnc2n1CCC2)C(C)C (stereo unspecified)"
testreadout = "cytotoxicity at 10 µM"
readoutunits = "%"
observed = -7.85

[[record]]
compound = "CN(C)S(=O)(=O)N1C[C@@H]2C[C@H](C(=O)NCc3ccccc3)[C@H](C1)O2"
testreadout = "cytotoxicity at 10 µM"
readoutunits = "%"
observed = 4.09

[[record]]
compound = "c1ccc(-c2nc(CN3CCOC(Cn4cccn4)C3)cs2)cc1 (stereo unspecified)"
testreadout = "cytotoxicity at 10 µM"
readoutunits = "%"
observed = 8.62


Source of measurements: ChEMBL document CHEMBL4513216
